These entries and their values trace back to PubChem BioAssay (EPA / NIEHS).

- Read-out: Hypoxia-inducible factor 1-alpha (Homo sapiens) (UniProt Q16665)
- Sequence (Q16665 whole entry, looked up): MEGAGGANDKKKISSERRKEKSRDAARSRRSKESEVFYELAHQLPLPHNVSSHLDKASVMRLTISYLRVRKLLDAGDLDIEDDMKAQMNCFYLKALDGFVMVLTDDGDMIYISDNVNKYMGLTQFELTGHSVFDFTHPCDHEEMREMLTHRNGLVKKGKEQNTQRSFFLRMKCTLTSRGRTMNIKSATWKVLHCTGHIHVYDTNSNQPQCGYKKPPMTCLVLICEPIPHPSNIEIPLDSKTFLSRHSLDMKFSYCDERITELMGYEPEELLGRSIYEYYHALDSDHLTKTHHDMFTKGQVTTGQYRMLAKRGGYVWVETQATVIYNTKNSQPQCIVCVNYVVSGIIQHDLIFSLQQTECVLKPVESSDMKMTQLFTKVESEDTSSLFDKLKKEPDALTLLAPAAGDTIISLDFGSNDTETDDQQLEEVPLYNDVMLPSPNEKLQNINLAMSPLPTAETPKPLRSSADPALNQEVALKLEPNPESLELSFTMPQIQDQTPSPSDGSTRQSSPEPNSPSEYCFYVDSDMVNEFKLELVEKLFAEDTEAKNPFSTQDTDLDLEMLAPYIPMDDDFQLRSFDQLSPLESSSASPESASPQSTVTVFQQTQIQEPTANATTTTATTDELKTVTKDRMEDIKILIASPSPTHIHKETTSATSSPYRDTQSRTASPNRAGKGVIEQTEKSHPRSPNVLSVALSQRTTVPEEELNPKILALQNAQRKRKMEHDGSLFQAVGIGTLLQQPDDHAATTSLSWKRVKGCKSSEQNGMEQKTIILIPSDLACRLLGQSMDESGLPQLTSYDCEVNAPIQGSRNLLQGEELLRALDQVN
- Method Description: LTEA_HepaRG_HIF1A: Life Technologies and Expression Analysis (LTEA) Assay for Hypoxia-inducible factor 1 (HIF1A) Trancription factor using HepaRG (AID 2283503);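 also: HIF1A transcript by TaqMan qRT-PCR normalized to ACTB GAPDH and POLR2A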
- Measurement Context: mRNA level, 48 h; actives raise or lower the signal
- Procedure: LTEA_HepaRG is a cell based, multiplexed-readout assay that uses HepaRG, a human liver cell line, with measurements taken at 48 hours after chemical dosing on a 96-well plate.LTEA_HepaRG_HIF1A is one of 102 assay component(s) measured in the LTEA HepaRG cell culture assay. It is a marker of Cell proliferation, survival, death.Data from the assay component LTEA_HepaRG_HIF1A was analyzed into 1 endpoint. […]
Activity calls are given as the source filed them. The calls were made as follows: active = hit-call score of the fitted dose curve at least 0.9, where 1 is the maximum; inactive = score below 0.9.
Classes used: active, inactive

INSERT INTO assay_data (compound, assigned_category) VALUES
  ('CC(C)(OOC(C)(C)c1ccccc1)c1ccccc1', 'inactive'),
  ('Oc1ccc2ccc3cccc4ccc1c2c34', 'inactive'),
  ('O=[N+]([O-])c1ccc(Oc2ccc(Cl)cc2Cl)cc1', 'inactive'),
  ('CCC[CH2][Sn]([Cl])([CH2]CCC)[CH2]CCC', 'active'),
  ('Nc1ccc([N+](=O)[O-])cc1', 'inactive'),
  ('CC(C)(C)C(O)(CCc1ccc(Cl)cc1)Cn1cncn1 (configuration not stated)', 'inactive'),
  ('O=[N+]([O-])C(Br)(CO)CO', 'inactive');
